- TARGET: T1, human CCR8 (human, UniProt P51685 1-355)
- T1 construct: also called hCCR8; CC chemokine receptor 8
- METHOD_SUMMARY: flow cytometry, hCCR8-transfected CHO-K1 cells
- Protocol: Briefly, 1.10⁵ cells per well in a 96 well plate were incubated with a dilution of unconjugated anti-CCR8 mAb at 10 μg/mL then diluted at 1/3.33, 4 dilution points (during 30 min at 4° C.). […] Bound detection antibody is quantified on a MacsQuant16 (Miltenyi, Gladbach, Germany) (B1 or B2 channel, 5000 events per acquisition). […] EC50 values were determined via nonlinear fit “log (agonist) vs.response—Variable slope (four parameters)” function of Graphpad prism. […]
MEASURED_PROPERTY: % positive cells (%)
Supply the numeric figure in %, leaving out any unit text.

anti-CCR8 mAb 1-10 (antibody, V domains shown, Murine hybridoma mAb) VH: EVQLQQSGPELVKPGASVKISCKTSGYTFTEYTIHWVKQSHGESLEWVGGINPNNGNTRYDQKFKGKATLTIDKSSSPAYMELRSLTSEDSAVYYCARVARSSGSGPYAMDYWGQGTSVTVSS VL: DVVMTQTPLSLPVSLGDQASISCRCTQSLLHTNGDTYLHWYLQKPGQSPKLLIYKVSNRFSGVPDRFSGSGSGTDFTLKISRVEAEDLGVYFCSQSTHVPYTFGGGTKLEIK | 56.2
anti-CCR8 mAb 1-16 (antibody, V domains shown, Murine hybridoma mAb) VH: EVQLQQSGPELVKPGASVKISCKASVYSFTGSYMHWVKQSHVKSLEWIGRINPYNGATSYNQNFKDKASLTVDKSSSTAYMELHSLTSEDSAVYYCATTLLRLLDYWGQGTTLTVSS VL: DIVMTQAAFSNPVTLGTSASISCRSSKSLLHSNGITYLYWYLQKPGQSPQLLIYQMSNLASGVPDRFSSSGSGTDFTLRISRVEAEDVGVYYCAQNLELPWTFGGGTKLEIK | 34.7

Read the next record carefully.
Recorded result, anti-CCR8 mAb 1-3 (antibody, V domains shown, Murine hybridoma mAb) VH: KVQLQQSGPELVKPGASVKISCKTSGYTFTEYTIHWVQQIHGKSPEWIGGINPNGDTRYDQKFKGKATLTIDKSSSTAYMELRSLTSEDSAVYYCARVARFYGISPYAMDYWGQGTSVTVSS VL: DVVMTQTPLSLPVSLGDQASISCRCTQSLLHSNGDTYLHWYLQKPGQSPNLLIYKVSNRFSGVPDRFSGSGSGTDFTLKINRVEAEDLGVYFCSQSTHVPYTFGGGTNLEIK , % positive cells: 85.7
